test system: MDA-MB-231 breast; test: NCI tumour cell line growth inhibition, 48 h
Measured attribute: TGI

> print(dat)
                                   compound  measured.attribute  reported
1  CC1OC(OCC2OC(Oc3ccc(C4CC(=O)c5c(O)cc(O)cc5O4)cc3O)C(O)C(O)C2O)C(O)C(O)C1O (stereo not drawn)                 TGI  > 100 µM
2               c1cc2c(c(NC3=NCCN3)c1)CCCC2                 TGI  > 100 µM

Query :: State its TGI for this compound: Fc1ccc(C2C3CCOc4c(ccc5ccccc45)C3=NN2c2ccccc2)cc1 (stereo not drawn)
Result :: > 100 µM

----------
Each entry below carries its measured GI50, system: U251 CNS.

Previously resolved entries follow.
> print(dat)
                                   compound  measured.attribute  reported
1         Cc1cc(N)cc(C)c1-c1c(Br)cc(N)cc1Br                GI50   4.54 µM
2  CC1(O)COCCCCOc2c(CN)cccc2NC(=O)c2nc(cnc2N)-c2ccc(cc2)S(=O)(=O)C(C)(C)C1 (centres undefined)                GI50  0.715 µM
3  Cc1cc(C#Cc2ccccc2)ccc1-n1c(/C=C/c2cc(O)ccc2O)nc2ccccc2c1=O                GI50   1.45 µM
4      FC(F)(F)c1ccc(NCc2nc3ccccc3[nH]2)cc1                GI50   27.5 µM
5  COc1ccc(-c2nc3sccn3c2-c2ccnc(NCCCNS(=O)(=O)c3ccc(F)cc3)n2)cc1                GI50    3.7 µM

Query :: Report measured GI50 on U251 CNS; entry: O=C1NC(=O)C(c2c[nH]c3ccccc23)=C1c1ccccc1
Result :: > 25 µM

Query :: Report measured GI50 on U251 CNS; entry: N=C1C(c2nc3ccccc3s2)=C(O)CN1c1cc(Cl)cc(Cl)c1
Result :: 32.3 µM

Query :: Report measured GI50 on U251 CNS; entry: CCc1ccc2c(c1)C(=O)c1c-2n(CCCN)c(=O)c2cc([N+](=O)[O-])ccc12
Result :: 1.07 µM

Query :: Report measured GI50 on U251 CNS; entry: Cc1[nH]n(-c2cccc(Cl)c2)c(=O)c1/C=C1\C=c2ccccc2=CC1=O
Result :: 40.7 µM

----------
system: MALME-3M melanoma; assay: NCI tumour cell line growth inhibition, 48 h
# TGI values compiled below

> print(dat)
                               molecule  reported
1  Cc1cc(-c2cscn2)c(O)c([N+](=O)[O-])c1  > 100 µM

Turning now to a further record.
Query :: State its TGI for this molecule: CNCCNc1nc2ccccc2c2c(=O)c3cccc(C)c3sc12
Result :: 11.7 µM

----------
system: A549 NSCLC; assay: NCI tumour cell line growth inhibition, 48 h
Measured attribute: GI50

Query :: State its GI50 for this compound: COC1=CC2CCN3Cc4cc5c(cc4C(C1O)C23)OCC5 (centres undefined)
Result :: 1.26 µM

Query :: State its GI50 for this compound: Fc1ccc(-c2nn3c(COc4ccc(Cl)cc4Cl)nnc3s2)cc1Oc1ccccc1
Result :: 20.7 µM

Query :: State its GI50 for this compound: Oc1cccc(-c2nc(-c3ccccc3)[nH]c2-c2ccncc2)c1
Result :: 14.6 µM

Query :: State its GI50 for this compound: O=C1NC(=N[C@H](CO)c2ccccc2)S/C1=C\c1ccc2ncccc2c1
Result :: 4.62 µM

Query :: State its GI50 for this compound: COc1cc(-c2nn(-c3cccc(NC(=O)CCN4CCN(C)CC4)c3)cc2-c2ccncc2)ccc1Cl
Result :: 1.4 µM

Query :: State its GI50 for this compound: C#Cc1ccc(-n2c(/C=C/c3ccc4ccccc4c3)nc3ncccc3c2=O)cc1
Result :: 2.73 µM

Query :: State its GI50 for this compound: CN1CCN(c2ccc(Nc3ncc4cc5n(c4n3)C3(CCCCC3)CNC5=O)nc2)CC1
Result :: 1.47 µM

----------
system: RXF 393 renal; assay: NCI tumour cell line growth inhibition, 48 h
Measured attribute: TGI

> print(dat)
                                   molecule  measured.attribute   reported
1           Nc1c(Br)cc(-c2nc3ccccc3s2)cc1Br                 TGI   > 100 µM
2  COC(=O)C(/C(=N/N)C(=O)Nc1cccc(O)c1)c1nc2ccccc2[nH]c1=O (stereo unspecified)                 TGI   > 100 µM
3  O=S(=O)(Oc1ccc2ccccc2c1-c1c(OS(=O)(=O)C(F)(F)F)ccc2ccccc12)C(F)(F)F                 TGI   > 100 µM
4  O=C(NC1C(=O)NNC1c1ccccc1Cl)c1ccccc1 (stereo unspecified)                 TGI   > 100 µM
5  C=C1C(=O)C2(C)OC2(C)C1C(=O)O (stereo unspecified)                 TGI   > 100 µM
6  COc1ccc(/C=C2\CCC(Cc3ccccc3)(CN(C)C)C2=O)cc1 (stereo unspecified)                 TGI  > 72.9 µM

Query :: State its TGI for this molecule: c1c2c(cc3c1OCO3)-c1cc3ccc4c(c3c[n+]1CC2)OCO4
Result :: > 12.5 µM

Query :: State its TGI for this molecule: NC(=O)c1ncn(Cc2ccccc2)c1CNC(N)=S
Result :: > 100 µM

Query :: State its TGI for this molecule: CCOC(=O)C(NC(=O)c1ccccc1)(Nc1ccc(S(=O)(=O)Nc2cc(C)nc(C)n2)cc1)C(F)(F)F (stereo unspecified)
Result :: > 100 µM

Query :: State its TGI for this molecule: Cc1cn2c(/C=C3/C(=O)Nc4ccc(Cl)cc43)c(C)nc2s1
Result :: > 100 µM

Query :: State its TGI for this molecule: COC(=O)N/N=C(/c1nc2ccc([N+](=O)[O-])cc2[nH]c1=O)C(O)c1ccc(OC)c(OC)c1 (stereo unspecified)
Result :: > 100 µM

----------
system: NCI/ADR-RES ovarian; assay: NCI tumour cell line growth inhibition, 48 h
Measured attribute: TGI

Previously resolved entries follow.
> print(dat)
                       molecular.string  measured.attribute  reported
1     Cc1cc(N)cc(C)c1-c1c(Br)cc(N)cc1Br                 TGI   5.57 µM
2  Cc1cc(-c2cscn2)c(O)c([N+](=O)[O-])c1                 TGI  > 100 µM

Query :: State its TGI for this compound: N=C1/C(=C2\Nc3ccccc3S2)CC(=O)N1c1ccc(SC(F)F)cc1
Result :: > 100 µM

----------
# GI50 values compiled below
tested on: MDA-MB-231 breast; experiment: NCI tumour cell line growth inhibition, 48 h

Previously resolved entries follow.
> print(dat)
                                    compound      target.system   reported
 1  Cc1cc2c(cc1Cl)N1C(=O)NS(=O)(=O)N=C1NS2(=O)=O  MDA-MB-231 breast   > 100 µM
 2  COc1cc(-c2nn(-c3cccc(NC(=O)CCN4CCN(C)CC4)c3)cc2-c2ccncc2)ccc1Cl  MDA-MB-231 breast    1.69 µM
 3   Fc1ccc(-c2c(-c3ccncc3)[nH]c3nccnc23)cc1  MDA-MB-231 breast  > 14.4 µM
 4      FC(F)(F)c1ccc(NCc2nc3ccccc3[nH]2)cc1  MDA-MB-231 breast    22.8 µM
 5  CCN(CCO)CCCOc1ccc2c(Nc3cc(CC(=O)Nc4cccc(F)c4)[nH]n3)ncnc2c1  MDA-MB-231 breast    19.2 µM
 6           O=C(Nc1ccccc1)Nc1ccc(Cl)c(Cl)c1  MDA-MB-231 breast     3.9 µM
 7  CNCCN(C)Cc1cn[nH]c1-c1ccc(OC2CC(OCCC3CCOCC3)C2)cc1 (configuration not stated)  MDA-MB-231 breast    40.7 µM
 8  COC1=CC2CCN3Cc4cc5c(cc4C(C1O)C23)OCC5 (configuration not stated)  MDA-MB-231 breast    2.86 µM
 9  CCOC(=O)c1cc(-c2ccccc2)[nH]c1N/N=C/c1c(Cl)cccc1Cl  MDA-MB-231 breast     3.7 µM
10  C#Cc1ccc(-n2c(/C=C/c3ccc4ccccc4c3)nc3ncccc3c2=O)cc1  MDA-MB-231 breast    3.74 µM

Query :: State its GI50 for this compound: Cc1[nH]n(-c2cccc(Cl)c2)c(=O)c1/C=C1\C=c2ccccc2=CC1=O
Result :: 36.1 µM

Query :: State its GI50 for this compound: COc1ccc2nc3cc(Cl)ccc3c(Nc3cc(C(C)C)c(O)cc3C)c2c1
Result :: 1.82 µM

Source: PubChem BioAssay (NCI)
